Numbers sourced from ChEMBL document CHEMBL1201862.

Please provide measured GI50 for the entries that follow.
System: EKVX
test_details: NCI tumour cell line growth inhibition, 48 h
Active and inactive are the calls of the source. Cut-off read from the data, not from the text of the source: active = GI50 up to about 1.1 µM and inactive = higher.

Task: Please list GI50 recorded for the molecule Cc1cc(N(CCC#N)CCC#N)ccc1C(/N=N\c1ccc([N+](=O)[O-])cc1)=N\NC(=O)c1cc(Cl)ccc1O
Result: 24.3 µM (inactive)

Task: Please list GI50 recorded for the molecule Cc1cc(NS(=O)(=O)c2ccc(NC(NC(=O)OC(C)C)(C(F)(F)F)C(F)(F)F)cc2)nc(C)n1
Result: > 100 µM (inactive)

Task: Please list GI50 recorded for the molecule CC(=O)[C@@H](C)C(=O)N1C(=O)OC[C@@]12[C@@H]1CC[C@@H](C1)C2(C)C
Result: > 100 µM (inactive)

Task: Please list GI50 recorded for the molecule O=C(NN=C1NCCN1)c1ccco1
Result: > 100 µM (inactive)

Task: Please list GI50 recorded for the molecule COC(=O)Nc1nc2cc(NS(=O)(=O)c3cccs3)ccc2[nH]1
Result: 22.4 µM (inactive)
